target: the molecule itself; test: monomer to dimer conversion (% monomer vs concentration); self-association
REPORTED METRIC: EC50 (nM)
Answers are plain numbers, in nM.

Task: Query (protein): L236V (protein) ASTKGPSVFPLAPCSRSTSESTAALGCLVKDYFPEPVTVSWNSGALTSGVHTFPAVLQSSGLYSLSSVVTVPSSSLGTKTYTCNVDHKPSNTKVDKRVAPEFLGGPSVFLFPPKPKDTLMISRTPEVTCVVVDVSQEDPEVQFNWYVDGVEVHNAKTKPREEQFNSTYRVVSVLTVLHQDWLNGKEYKCKVSNKGLPSSIEKTISKAKGQPREPQVYTLPPSQEEMTKNQVSLTCVVKGFYPSDIAVEWESNGQPENNYKTTPPVLDSDGSFFLYSRLTVDKSRWQEGNVFSCSVMHEALHNHYTQKSLSLSLGK ; field requested: EC50
Result: 2160
